Biological target: Glycogen synthase kinase-3 beta (Homo sapiens, UniProt P49841)
Sequence (P49841 whole entry): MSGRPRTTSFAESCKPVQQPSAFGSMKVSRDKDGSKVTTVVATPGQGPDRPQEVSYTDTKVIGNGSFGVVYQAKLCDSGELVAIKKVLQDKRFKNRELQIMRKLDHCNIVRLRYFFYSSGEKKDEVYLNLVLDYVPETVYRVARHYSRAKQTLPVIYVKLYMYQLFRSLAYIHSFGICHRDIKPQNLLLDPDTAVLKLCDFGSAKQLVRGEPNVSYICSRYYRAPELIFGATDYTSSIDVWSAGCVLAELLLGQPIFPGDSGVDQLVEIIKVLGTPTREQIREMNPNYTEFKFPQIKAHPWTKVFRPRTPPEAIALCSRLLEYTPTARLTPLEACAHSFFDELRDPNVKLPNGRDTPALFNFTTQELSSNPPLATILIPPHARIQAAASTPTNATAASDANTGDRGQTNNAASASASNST
Assay: Inhibition of human GSK3beta using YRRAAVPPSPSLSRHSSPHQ(pS)EDEEE as substrate in presence of [gamma-33P]-ATP
The molecules listed here are annotated with their IC50.
Express the result in µM but write the number alone.

smiles.record: O=C(Nc1cc(-c2cccc3[nH]ccc23)cc2[nH]ncc12)c1ccccn1
IC50 / µM: 20

// `O=C(Nc1cc(-c2ccc(O)cc2)cc2[nH]ncc12)c1ccccn1` : IC50 value = 1.58

----------
Molecular target: Phosphatidylinositol 4,5-bisphosphate 3-kinase catalytic subunit gamma isoform (Homo sapiens, UniProt P48736)
Sequence (P48736 whole entry, canonical isoform): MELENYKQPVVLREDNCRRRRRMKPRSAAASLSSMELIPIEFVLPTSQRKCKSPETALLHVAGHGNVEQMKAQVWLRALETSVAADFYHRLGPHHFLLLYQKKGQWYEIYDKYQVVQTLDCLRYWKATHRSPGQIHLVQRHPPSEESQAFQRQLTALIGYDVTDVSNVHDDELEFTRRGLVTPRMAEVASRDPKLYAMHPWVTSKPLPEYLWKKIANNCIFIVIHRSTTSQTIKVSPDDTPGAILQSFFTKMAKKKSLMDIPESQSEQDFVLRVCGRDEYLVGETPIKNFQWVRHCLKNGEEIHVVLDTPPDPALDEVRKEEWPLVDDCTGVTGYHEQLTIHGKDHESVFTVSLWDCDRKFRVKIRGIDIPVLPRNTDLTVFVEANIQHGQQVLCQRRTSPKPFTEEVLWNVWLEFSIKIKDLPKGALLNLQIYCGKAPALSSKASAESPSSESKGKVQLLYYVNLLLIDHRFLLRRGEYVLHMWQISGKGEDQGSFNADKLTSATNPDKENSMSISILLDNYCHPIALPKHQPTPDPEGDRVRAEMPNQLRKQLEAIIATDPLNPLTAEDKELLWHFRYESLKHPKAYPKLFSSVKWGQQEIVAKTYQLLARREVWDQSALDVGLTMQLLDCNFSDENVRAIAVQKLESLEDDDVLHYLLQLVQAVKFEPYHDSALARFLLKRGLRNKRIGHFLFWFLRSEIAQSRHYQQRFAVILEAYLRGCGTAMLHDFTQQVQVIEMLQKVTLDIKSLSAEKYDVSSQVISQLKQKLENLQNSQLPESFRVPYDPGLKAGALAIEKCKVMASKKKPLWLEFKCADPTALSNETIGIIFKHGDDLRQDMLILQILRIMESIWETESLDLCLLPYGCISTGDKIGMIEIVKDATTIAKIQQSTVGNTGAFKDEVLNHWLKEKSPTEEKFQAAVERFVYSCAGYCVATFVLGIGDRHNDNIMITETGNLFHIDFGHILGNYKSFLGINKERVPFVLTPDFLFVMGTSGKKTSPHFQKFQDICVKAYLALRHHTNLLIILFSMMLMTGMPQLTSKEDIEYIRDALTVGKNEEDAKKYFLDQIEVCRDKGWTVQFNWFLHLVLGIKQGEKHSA
Assay: Inhibition of PI3Kgamma (unknown origin) using PIP2 as substrate pretreated for 15 mins followed by substrate addition measured after 1 hr
The compounds listed here are annotated with their pIC50.
Scale: negative log10 of molar concentration, which is what pIC50 denotes.

Please review the entries below; each comes with its answer.
smiles.record: O=C(Nc1cc(-c2cccc(O)c2)cc2[nH]ncc12)C1CC1
pIC50: 5.10

smiles.record: O=C(Nc1cc(-c2ccc(O)cc2)cc2[nH]ncc12)c1ccccn1
pIC50: 5.30

// `O=C(Nc1cc(-c2ccc3cc[nH]c3c2)cc2[nH]ncc12)c1ccccn1` : pIC50 value = 4.80

// `O=C(Nc1cc(-c2cccc(O)c2)cc2[nH]ncc12)c1ccccn1` : pIC50 value = 5.10

// `O=C(Nc1cc(-c2ccccc2)cc2[nH]ncc12)C1CC1` : pIC50 value = 4.60
